# Tested on: Rattus norvegicus
# ASSAY: In vivo triglyceride lowering activity dosed at 0.05 % of the diet
# Type: functional
ENDPOINT NAME: Diet

Illustrative cases are given below, each with its answer.
• CCCCCCCCCCCCCCCCNc1ccc(C(=O)OCC)cc1 = <54%
• CCOC(=O)c1ccc(NCc2ccc(OCc3ccccc3)cc2)cc1 = 85%

Problem: Test system Rattus norvegicus; read-out Diet; what value for O=C(O)c1ccc(NCCCCCCCCCCc2ccccc2)cc1 ?
Solution: 88%

* * *

# Diet listing for each entry below
# Tested on: Rattus norvegicus
# ASSAY: In vivo Sterol lowering activity at dose as 0.01 % of the diet
# Type: functional
Reply with just the number (in %).

Illustrative cases are given below, each with its answer.
- CCOC(=O)c1ccc(NCCCCCCCCCCc2ccccc2)cc1: 100
- Cl.O=C(O)c1ccc(NCCCCCCCCCCCn2ccnc2)cc1: 95

Problem: Report Diet for O=C(O)c1ccc(NC/C=C/c2ccccc2)cc1 please.
Solution: 86

Problem: Report Diet for O=C(O)c1ccc(NCCCCCCCCCCCCc2cccs2)cc1 please.
Solution: 85

Problem: Report Diet for O=C(O)c1ccc(NCCCCCCc2ccc(Cl)cc2)cc1 please.
Solution: 81

Problem: Report Diet for CCCCCCCCc1ccc(CNc2ccc(C(=O)O)cc2)s1 please.
Solution: 85

Problem: Report Diet for O=C(O)c1ccc(NCCCc2cccc(Cl)c2)cc1 please.
Solution: 82

Problem: Report Diet for CCOC(=O)c1ccc(NCCCc2ccc(F)cc2)cc1 please.
Solution: 83

Problem: Report Diet for CCCCCCCCCCCCCCCCCCCNc1ccc(C(=O)[O-])cc1.[Na+] please.
Solution: 93

Problem: Report Diet for CCCCCCCCCCCCNc1ccc(C(=O)[O-])cc1.[Na+] please.
Solution: 89

Problem: Report Diet for CCCCCCCCc1ccc(CCCNc2ccc(C(=O)O)cc2)s1 please.
Solution: 88

Problem: Report Diet for O=C(CCCCC(=O)c1ccc(Cl)cc1)Nc1ccc(C(=O)O)cc1 please.
Solution: 82

Problem: Report Diet for C=CCCCCCCCC/C=C/CCCNc1ccc(C(=O)[O-])cc1.[Na+] please.
Solution: 88

Problem: Report Diet for O=C(O)c1ccc(NCCCCCCCCc2ccccc2)cc1 please.
Solution: 90

* * *

# Test system: Rattus norvegicus
# ASSAY: In vivo Sterol lowering activity at dose as 0.10 % of the diet.
# Assay type: functional
ENDPOINT NAME: serum sterol, percent of control (%)
Reply with just the number (in %).

Illustrative cases are given below, each with its answer.
- CCOC(=O)c1ccc(NCCCc2ccccc2OC)cc1: 107
- O=C(O)c1ccc(NCCCCCc2ccccc2)cc1: 108
- CCOC(=O)c1ccc(NC(=O)CCc2ccc(C)cc2)cc1: 88
- CCOC(=O)c1cccc(NCCCc2ccc(Cl)cc2)c1: 96
- O=C(O)c1ccc(NCCCc2ccccc2F)cc1: 81

Problem: Test system Rattus norvegicus; read-out serum sterol, percent of control; what value for CCOC(=O)c1ccc(NCCCCCc2ccccc2)cc1 ?
Solution: 90

Problem: Test system Rattus norvegicus; read-out serum sterol, percent of control; what value for O=C(O)c1ccc(NCCc2ccc(Cl)cc2)cc1 ?
Solution: 105

Problem: Test system Rattus norvegicus; read-out serum sterol, percent of control; what value for CCOC(=O)c1ccc(NCCCCCCc2ccc(Cl)cc2)cc1 ?
Solution: 85

Problem: Test system Rattus norvegicus; read-out serum sterol, percent of control; what value for CCOC(=O)c1ccc(NCCc2cccc3ccccc23)cc1 ?
Solution: 94

Problem: Test system Rattus norvegicus; read-out serum sterol, percent of control; what value for O=C(CCc1ccc(Cl)cc1)Nc1ccc(C(=O)O)cc1 ?
Solution: 96

Problem: Test system Rattus norvegicus; read-out serum sterol, percent of control; what value for O=C(O)c1ccc(NCCCc2ccc([N+](=O)[O-])cc2)cc1 ?
Solution: 96
